Dear all, this message contains IC50 results, target or system Glycogen phosphorylase, muscle form (Oryctolagus cuniculus).

- smiles: "Cn1c(=O)c(Nc2ccc(C(=O)NCCc3cccs3)cc2)nc2ccccc21"
  IC50: "> 10 µM"
- smiles: "CN(C)CCn1c(=O)c(Nc2ccc(C(=O)NCc3cccs3)cc2)nc2ccccc21"
  IC50: "0.71 µM"
- smiles: "Cn1c(=O)c(Nc2cccc(NC(=O)c3ccno3)c2)nc2ccccc21"
  IC50: "> 10 µM"
- smiles: "Cn1c(=O)c(Nc2ccc(NC(=O)c3ccc[nH]3)cc2)nc2ccccc21"
  IC50: "> 10 µM"
- smiles: "CN(c1ccc(C(=O)Nc2ccon2)cc1)c1nc2ccccc2n(C)c1=O"
  IC50: "> 10 µM"
